Tested on: XF498
Assay: NCI tumour cell line growth inhibition, 48 h
Activity calls are given as the source filed them. Cut-off read from the data, not from the text of the source: active = GI50 up to about 1.1 µM and inactive = higher.
Mark one answer only. Choices: label 1 = active, label 0 = inactive

[[record]]
molecule = "Nc1ccc(Cn2ccc3c4c(N)nc(N)nc4ccc32)cc1"
system_name = "XF498"
qualitative_label = "label 0"


Exam item: Recorded test call requested for CN(C)CCN(C)CC1COC(C)(C)O1 (configuration not stated)
Marked response: label 0

Exam item: For COc1cccc(C2=NC(C(C)C)CO2)c1 (configuration not stated) then?
Marked response: label 0

Exam item: # iterate: COc1cc(C2c3cc4c(cc3[C@@H](NCCN(C)C)C3COC(=O)[C@H]23)OCO4)cc(OC)c1O (some centres not stated)
Marked response: label 1

Exam item: Also, O=c1[nH]c(=O)n(C2CC(O)C(CO)O2)cc1C#Cc1ccc(C(F)(F)F)cc1 (configuration not stated) please.
Marked response: label 0

Exam item: Check CN(C)CCCNc1c2ccccc2nc2cccc([N+](=O)[O-])c12 too.
Marked response: label 1

Exam item: Also need CSc1nc2c(ncn2C2OC(CO)C(O)C(O)C2O)c(=O)n1C (configuration not stated) , thanks.
Marked response: label 0

Exam item: Queued: CCOC(=O)/C(Br)=C1/OC(=O)c2ccccc2-c2ccccc21.CCOC(=O)/C(Br)=C1\OC(=O)c2ccccc2-c2ccccc21
Marked response: label 0

Exam item: Also, N#CCCN(c1ccc(/C=N/c2ccccc2)cc1)S(=O)(=O)c1ccccc1 please.
Marked response: label 1

Exam item: Note, next up: C[C@]12CCC(=O)C=C1CC[C@@H]1C2CC[C@]2(C)Nc3[nH]ncc3CC12 (some centres not stated)
Marked response: label 0

Exam item: And then C/C(CC(=O)Nc1cc(Cl)c(Cl)cc1Cl)=N\NC(N)=O , what is it?
Marked response: label 0

Exam item: Further, for COc1ccc(C2CC(C)=Nc3c(O)nc(S)nc3N2)cc1 (configuration not stated) ?
Marked response: label 0
